Read-out: Cytochrome P450 3A4 (Homo sapiens)
assay-remarks: CLD_CYP3A4_6hr: CellzDirect (CLD) Gene Expression Assay for xenobiotic metabolism (CYP3A4) at 6 hours (AID 2283680)
Records with an inconclusive call do not appear. Activity calls are given as the source filed them. How the source made its calls: active means hit-call score of the fitted dose curve at least 0.9, where 1 is the maximum; inconclusive means response in the unintended direction; inactive means score below 0.9.
Outcome field: choose from active, inactive

Solved cases below.
compound | answer-label
CNC(=O)N(C)c1nnc(C(C)(C)C)s1 | inactive
CCOc1nc(C(Cl)(Cl)Cl)ns1 | inactive
CCCCC(C#N)(Cn1cncn1)c1ccc(Cl)cc1 (configuration not stated) | active

Now for another entry.
**Query** Tell me the recorded outcome of this test for `CC(C)N1C(=O)N(c2ccccc2)CSC1=NC(C)(C)C` .
**Result** inactive

====

Read-out: sulfotransferase (SULT2A), SULT2A1 (gene 6822)
assay-remarks: CLD_SULT2A_24hr: CellzDirect (CLD) Gene Expression Assay for sulfotransferase (SULT2A) at 24 hours (AID 2283694)
Results filed as inconclusive are left out. Calls of active or inactive are those of the source. The calls were made as follows: active = hit-call score of the fitted dose curve at least 0.9, where 1 is the maximum; inconclusive = response in the unintended direction; inactive = score below 0.9.

compound | outcome
Cc1nc(N(C)C)nc(OC(=O)N(C)C)c1C | inactive
CC1(C)CCC(=Cc2ccc(Cl)cc2)C1(O)Cn1cncn1 (stereo not drawn) | inactive
O=c1n(Cl)c(=O)n(Cl)c(=O)n1Cl | inactive

====

System: frog Estrogen Receptor (ESR1), gene 398734
assay-remarks: ATG_frER1_XSP1: Attagene TRANS-FACTORIAL Multi-Species (XSP1) HepG2 Assay for frog Estrogen Receptor (ESR1) (AID 2283777)
Results filed as inconclusive are left out. The source made the active and inactive calls. The calls were made as follows: active = hit-call score of the fitted dose curve at least 0.9, where 1 is the maximum; inconclusive = response in the unintended direction; inactive = score below 0.9.
Outcome field: choose from active, inactive

Solved cases below.
molecule | answer-label
CC1(C)CCC(=Cc2ccc(Cl)cc2)C1(O)Cn1cncn1 (stereo not given) | inactive
CC1(C)C(C=C(Cl)Cl)C1C(=O)OC(C#N)c1cccc(Oc2ccccc2)c1 (stereo not given) | active

**Query** Tell me the recorded outcome of this test for CCN(CC)C(=O)C(C)Oc1cccc2ccccc12 (stereo not given) .
**Result** active

**Query** Tell me the recorded outcome of this test for `Cc1c(COC(=O)[C@@H]2[C@H](/C=C(\Cl)C(F)(F)F)C2(C)C)cccc1-c1ccccc1` .
**Result** active

**Query** Tell me the recorded outcome of this test for `COP(=S)(OC)Oc1ccc([N+](=O)[O-])c(C)c1` .
**Result** active

====

system-under-test: rat Opioid Receptor, Non-selective Binding, Oprm1 (gene 25601)
assay-remarks: NVS_GPCR_rOpiate_NonSelective: NovaScreen (NVS) G Protein-Coupled Receptor Assay for rat Opioid Receptor, Non-selective Binding (AID 2283318)
Inconclusive results are not listed. Active and inactive are the calls of the source. How the source made its calls: active means hit-call score of the fitted dose curve at least 0.9, where 1 is the maximum; inconclusive means response in the unintended direction; inactive means score below 0.9.
Outcome field: choose from active, inactive

**Query** Tell me the recorded outcome of this test for CCN(CC)C(=O)C(C)Oc1cccc2ccccc12 (centres undefined) .
**Result** inactive

**Query** Tell me the recorded outcome of this test for `CCOP(=O)(OCC)Oc1nc(Cl)c(Cl)cc1Cl` .
**Result** active

**Query** Tell me the recorded outcome of this test for CCOc1cc(C(C)(C)C)ccc1C1COC(c2c(F)cccc2F)=N1 (centres undefined) .
**Result** inactive

**Query** Tell me the recorded outcome of this test for CCCN(CC)CC1COC2(CCC(C(C)(C)C)CC2)O1 (centres undefined) .
**Result** inactive

====

system-under-test: rat Acetylcholinesterase (AChE), Ache (gene 83817) (UniProt P37136)
Sequence (P37136 whole entry, looked up): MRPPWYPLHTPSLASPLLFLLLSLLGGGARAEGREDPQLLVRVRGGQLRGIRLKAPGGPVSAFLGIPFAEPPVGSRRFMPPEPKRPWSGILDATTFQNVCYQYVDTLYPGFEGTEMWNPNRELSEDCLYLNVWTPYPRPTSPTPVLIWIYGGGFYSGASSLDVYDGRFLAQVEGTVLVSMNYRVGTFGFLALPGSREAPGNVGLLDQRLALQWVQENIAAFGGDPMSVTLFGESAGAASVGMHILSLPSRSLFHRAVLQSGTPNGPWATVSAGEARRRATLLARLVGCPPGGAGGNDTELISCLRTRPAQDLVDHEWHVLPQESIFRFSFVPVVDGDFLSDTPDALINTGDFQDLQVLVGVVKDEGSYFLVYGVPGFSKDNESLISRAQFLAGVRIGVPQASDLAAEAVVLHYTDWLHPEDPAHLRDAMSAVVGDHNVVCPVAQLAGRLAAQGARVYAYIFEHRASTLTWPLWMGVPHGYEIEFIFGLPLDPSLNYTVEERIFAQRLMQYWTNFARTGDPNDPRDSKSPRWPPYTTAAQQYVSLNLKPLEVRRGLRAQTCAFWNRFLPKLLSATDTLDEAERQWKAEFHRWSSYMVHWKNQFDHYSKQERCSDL
assay-remarks: NVS_ENZ_rAChE: NovaScreen (NVS) Enzymatic Assay for rat Acetylcholinesterase (AChE) (AID 2283233)
Results filed as inconclusive are left out. Calls of active or inactive are those of the source. The calls were made as follows: active = hit-call score of the fitted dose curve at least 0.9, where 1 is the maximum; inconclusive = response in the unintended direction; inactive = score below 0.9.
Outcome field: choose from active, inactive

compound-structure | system-under-test | answer-label
N#CN=C1SCCN1Cc1ccc(Cl)nc1 | rat Acetylcholinesterase (AChE), Ache (gene 83817) (UniProt P37136) | active

**Query** Tell me the recorded outcome of this test for `CNC(=O)Oc1cccc2ccccc12` .
**Result** active

**Query** Tell me the recorded outcome of this test for `COP(=S)(OC)SCn1nnc2ccccc2c1=O` .
**Result** inactive

**Query** Tell me the recorded outcome of this test for `Nc1c(Cl)c(Cl)nc(C(=O)O)c1Cl` .
**Result** inactive

====

system-under-test: rat Constitutive Nitric Oxide Synthase (CNOS), Nos1 (gene 24598) (UniProt P29476)
Sequence (P29476 whole entry, looked up): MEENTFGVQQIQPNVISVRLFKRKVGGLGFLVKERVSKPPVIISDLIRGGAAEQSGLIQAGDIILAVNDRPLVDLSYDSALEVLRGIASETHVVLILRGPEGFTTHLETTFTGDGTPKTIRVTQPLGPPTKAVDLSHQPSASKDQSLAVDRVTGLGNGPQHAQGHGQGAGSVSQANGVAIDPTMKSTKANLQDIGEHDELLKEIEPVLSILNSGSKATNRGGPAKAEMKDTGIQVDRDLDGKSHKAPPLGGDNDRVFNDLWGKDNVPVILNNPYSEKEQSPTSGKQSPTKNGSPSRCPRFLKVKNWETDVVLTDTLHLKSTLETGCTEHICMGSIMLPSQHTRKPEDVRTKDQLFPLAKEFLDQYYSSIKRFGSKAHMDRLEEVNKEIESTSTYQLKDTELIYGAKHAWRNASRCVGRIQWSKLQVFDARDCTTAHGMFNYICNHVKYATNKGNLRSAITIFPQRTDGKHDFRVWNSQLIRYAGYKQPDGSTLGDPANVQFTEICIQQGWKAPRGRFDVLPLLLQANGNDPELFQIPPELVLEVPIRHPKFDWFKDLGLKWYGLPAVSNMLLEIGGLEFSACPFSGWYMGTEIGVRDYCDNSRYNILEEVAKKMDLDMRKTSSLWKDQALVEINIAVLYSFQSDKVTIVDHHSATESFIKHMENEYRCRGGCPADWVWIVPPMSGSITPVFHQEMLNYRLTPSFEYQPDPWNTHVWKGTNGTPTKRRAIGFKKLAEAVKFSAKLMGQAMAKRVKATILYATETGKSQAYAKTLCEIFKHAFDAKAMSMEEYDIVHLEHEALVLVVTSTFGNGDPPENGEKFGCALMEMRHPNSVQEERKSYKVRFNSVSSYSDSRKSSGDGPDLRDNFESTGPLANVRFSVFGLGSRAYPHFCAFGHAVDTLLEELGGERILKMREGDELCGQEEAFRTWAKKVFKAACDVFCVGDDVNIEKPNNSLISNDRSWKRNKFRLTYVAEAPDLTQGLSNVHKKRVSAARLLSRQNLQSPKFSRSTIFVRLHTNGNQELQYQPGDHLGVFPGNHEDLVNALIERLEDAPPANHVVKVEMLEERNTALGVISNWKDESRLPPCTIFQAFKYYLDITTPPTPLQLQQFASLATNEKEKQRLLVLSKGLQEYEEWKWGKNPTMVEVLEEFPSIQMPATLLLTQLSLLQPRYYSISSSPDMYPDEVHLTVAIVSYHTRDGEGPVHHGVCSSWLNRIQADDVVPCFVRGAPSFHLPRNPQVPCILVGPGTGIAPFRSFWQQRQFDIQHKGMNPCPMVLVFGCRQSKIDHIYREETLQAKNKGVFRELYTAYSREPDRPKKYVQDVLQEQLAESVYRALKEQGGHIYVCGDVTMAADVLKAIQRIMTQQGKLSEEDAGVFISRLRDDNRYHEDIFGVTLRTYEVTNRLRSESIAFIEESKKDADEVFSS
assay-remarks: NVS_ENZ_rCNOS: NovaScreen (NVS) Enzymatic Assay for rat Constitutive Nitric Oxide Synthase (CNOS) (AID 2283236)
Results filed as inconclusive are left out. Active and inactive are the calls of the source. Rule for the calls: active = hit-call score of the fitted dose curve at least 0.9, where 1 is the maximum; inconclusive = response in the unintended direction; inactive = score below 0.9.
Outcome field: choose from yes = active, no = inactive

Solved cases below.
compound-structure | answer-label
CC(C)NC(=O)N1CC(=O)N(c2cc(Cl)cc(Cl)c2)C1=O | yes
CN=C=S | no
COc1ccc(-c2ccccc2)cc1NNC(=O)OC(C)C | no
CS(=O)(=O)c1ccc(C(=O)C2C(=O)CCCC2=O)c([N+](=O)[O-])c1 | no
COP(=S)(OC)SCn1nnc2ccccc2c1=O | no

**Query** Tell me the recorded outcome of this test for `CCNC(=O)NC(=O)C(C#N)=NOC` .
**Result** yes

====

assay-remarks: Tanguay_ZF_120hpf_BRAI_legacy: (Legacy) Oregon State University Tanguay Lab 120 Hour Post-fertilization zebrafish Assay for Brain Malformation (AID 2283641)
Results filed as inconclusive are left out. Activity calls are given as the source filed them. Rule for the calls: active = hit-call score of the fitted dose curve at least 0.9, where 1 is the maximum; inconclusive = response in the unintended direction; inactive = score below 0.9.
Outcome field: choose from T (active), F (inactive)

Solved cases below.
compound | answer-label
CCNC(=O)NC(=O)C(C#N)=NOC | F
COP(=O)(OC)O/C(C)=C/C(=O)N(C)C | F
N#Cc1c[nH]cc1-c1cccc2c1OC(F)(F)O2 | F

**Query** Tell me the recorded outcome of this test for CCCN(CC)CC1COC2(CCC(C(C)(C)C)CC2)O1 (stereo unspecified) .
**Result** F

**Query** Tell me the recorded outcome of this test for `Cn1c(-c2ccccc2)cc(-c2ccccc2)[n+]1C` .
**Result** F

**Query** Tell me the recorded outcome of this test for `CC(C)Oc1cccc(NC(=O)c2ccccc2C(F)(F)F)c1` .
**Result** T

====

Read-out: urokinase plasminogen activator (uPA), PLAU (gene 5328)
assay-remarks: BSK_BE3C_uPA: BioMAP Diversity Plus: BE3C Assay for urokinase plasminogen activator (uPA) Biomarker Activity (AID 2283038);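 on Outcome: uPA protein level quantified by ELISA in cell cultures; uPA read one day after compound addition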
condition: primary human bronchial epithelial cells; actives raise or lower the signal
Calls of active or inactive are those of the source. Rule for the calls: active = hit-call score of the fitted dose curve at least 0.9, where 1 is the maximum; inactive = score below 0.9.
Outcome field: choose from active, inactive

Solved cases below.
compound | answer-label
Cn1c(-c2ccccc2)cc(-c2ccccc2)[n+]1C | inactive
CC(C)N1C(=O)c2ccccc2NS1(=O)=O | inactive
CC(C)NC(=O)N1CC(=O)N(c2cc(Cl)cc(Cl)c2)C1=O | inactive
CCCC(=NOCC)C1=C(O)CC(CC(C)SCC)CC1=O (configuration not stated) | inactive

**Query** Tell me the recorded outcome of this test for `COC(=O)c1c(C(F)F)nc(C(F)(F)F)c(C2=NCCS2)c1CC(C)C` .
**Result** inactive

**Query** Tell me the recorded outcome of this test for CCCCC(O)(Cn1cncn1)c1ccc(Cl)cc1Cl (configuration not stated) .
**Result** inactive

**Query** Tell me the recorded outcome of this test for `C=C(C)CN(CC)c1c([N+](=O)[O-])cc(C(F)(F)F)cc1[N+](=O)[O-]` .
**Result** inactive

**Query** Tell me the recorded outcome of this test for `O=c1n(Cl)c(=O)n(Cl)c(=O)n1Cl` .
**Result** inactive

**Query** Tell me the recorded outcome of this test for `COC(=O)NS(=O)(=O)c1ccc(N)cc1` .
**Result** inactive

**Query** Tell me the recorded outcome of this test for `COc1cc(OC)nc(NC(=O)NS(=O)(=O)c2ncccc2OCC(F)(F)F)n1` .
**Result** inactive

**Query** Tell me the recorded outcome of this test for `Clc1cccc(C(Cl)(Cl)Cl)n1` .
**Result** inactive

**Query** Tell me the recorded outcome of this test for O=C1C2CC=CCC2C(=O)N1SC(Cl)(Cl)Cl (configuration not stated) .
**Result** active

====

assay-remarks: ATG_Sox_CIS: Attagene CIS-FACTORIAL HepG2 Assay for human SRY-box transcription factor (SOX) (AID 2282960)
condition: HepG2 Attagene cis-factorial SOX reporter, mRNA; actives raise or lower the signal
Active and inactive are the calls of the source. Rule for the calls: active = hit-call score of the fitted dose curve at least 0.9, where 1 is the maximum; inactive = score below 0.9.
Outcome field: choose from active, inactive

compound | answer-label
COP(=S)(OC)Oc1ccc([N+](=O)[O-])c(C)c1 | inactive

**Query** Tell me the recorded outcome of this test for CCCC(=NOCC)C1=C(O)CC(CC(C)SCC)CC1=O (stereo unspecified) .
**Result** inactive

**Query** Tell me the recorded outcome of this test for `COC(=O)c1c(C(F)F)nc(C(F)(F)F)c(C2=NCCS2)c1CC(C)C` .
**Result** inactive

**Query** Tell me the recorded outcome of this test for CCCCC(O)(Cn1cncn1)c1ccc(Cl)cc1Cl (stereo unspecified) .
**Result** inactive

**Query** Tell me the recorded outcome of this test for CCCN(CC)CC1COC2(CCC(C(C)(C)C)CC2)O1 (stereo unspecified) .
**Result** active

**Query** Tell me the recorded outcome of this test for O=C1C2CC=CCC2C(=O)N1SC(Cl)(Cl)Cl (stereo unspecified) .
**Result** inactive

**Query** Tell me the recorded outcome of this test for COCC(C)N(C(=O)CCl)c1c(C)csc1C (stereo unspecified) .
**Result** inactive

**Query** Tell me the recorded outcome of this test for `C=CCOC(=O)C(C)(C)OC(=O)c1cc(-n2c(=O)cc(C(F)(F)F)n(C)c2=O)ccc1Cl` .
**Result** inactive
